# credit: ChEMBL document CHEMBL3826961

- assay text: Cytotoxicity against LPS-induced mouse BV2 cells assessed as cell viability after 24 hrs by MTT assay
- Type: cell-based, BV-2
- Set-up: concentration or dose not given beside the values
- condition details: read-out: Activity
Lab note - cut at 90% for viability at 24 h: Met if strictly below, Not met if not.

Q) Input COC(=O)CC[C@@H](C)[C@H]1CC(=O)[C@@]2(C)C3=C(C(=O)[C@@H](O)[C@]12C)[C@@]1(C)CC[C@H](O)C(C)(C)[C@@H]1CC3=O [METHYL LUCIDENATE L] ; condition: viability at 24 h strictly below 90%. Does it hold?
A) Met

Q) Below 90% on viability at 24 h? Entry CC(CC(=O)C[C@](C)(O)[C@H]1CC(=O)[C@@]2(C)C3=C(C(=O)[C@@H](O)[C@]12C)[C@@]1(C)CC[C@H](O)C(C)(C)[C@@H]1C[C@@H]3O)C(=O)O (stereo not given in full)
A) Not met
